# Tested on: Candida dubliniensis
# Protocol text: MIC broth microdilution (CLSI)
# Assay type: cell-based
# Condition label: Candida dubliniensis M230642
Here, each record is paired with measured MIC / MEC data.
Output spec: scalar in µg/mL, unitless text.

>>> observed_measurement("C[C@@H]1[C@H](O)[C@@H](C)/C=C/C=C/C=C/C=C/C=C/C=C/C=C/[C@H](O[C@@H]2O[C@H](C)[C@@H](O)[C@H](N)[C@@H]2O)C[C@@H]2O[C@](O)(C[C@@H](O)C[C@@H](O)[C@H](O)CC[C@@H](O)C[C@@H](O)CC(=O)O[C@H]1C)C[C@H](O)[C@H]2C(=O)O")
0.25
>>> observed_measurement("OC(Cn1cncn1)(Cn1cncn1)c1ccc(F)cc1F")
0.125
>>> observed_measurement("CCCCCCCCCCn1cc[n+](CC(O)(P(=O)(O)O)P(=O)(O)O)c1 [10-ZOL, Decyl-zoledronate]")
1
>>> observed_measurement("CC[C@H](C)C[C@H](C)CCCCCCCCC(=O)N[C@H]1C[C@@H](O)[C@@H](NCCN)NC(=O)[C@@H]2[C@@H](O)CCN2C(=O)[C@H]([C@H](O)CCN)NC(=O)[C@H]([C@H](O)[C@@H](O)c2ccc(O)cc2)NC(=O)[C@@H]2C[C@@H](O)CN2C(=O)[C@H]([C@@H](C)O)NC1=O")
0.06

Prompt: Return reported MIC / MEC; argument: Nc1nc(=O)[nH]cc1F
Response: 0.25

Data provenance: paper PMC12892976
